Reported inhibition at 0.1 µM is given for each of the following molecules.
Molecular target: PI3Kα kinase (Homo sapiens, UniProt P42336)
Construct: purchased Millipore, USA
Sequence (P42336 whole entry): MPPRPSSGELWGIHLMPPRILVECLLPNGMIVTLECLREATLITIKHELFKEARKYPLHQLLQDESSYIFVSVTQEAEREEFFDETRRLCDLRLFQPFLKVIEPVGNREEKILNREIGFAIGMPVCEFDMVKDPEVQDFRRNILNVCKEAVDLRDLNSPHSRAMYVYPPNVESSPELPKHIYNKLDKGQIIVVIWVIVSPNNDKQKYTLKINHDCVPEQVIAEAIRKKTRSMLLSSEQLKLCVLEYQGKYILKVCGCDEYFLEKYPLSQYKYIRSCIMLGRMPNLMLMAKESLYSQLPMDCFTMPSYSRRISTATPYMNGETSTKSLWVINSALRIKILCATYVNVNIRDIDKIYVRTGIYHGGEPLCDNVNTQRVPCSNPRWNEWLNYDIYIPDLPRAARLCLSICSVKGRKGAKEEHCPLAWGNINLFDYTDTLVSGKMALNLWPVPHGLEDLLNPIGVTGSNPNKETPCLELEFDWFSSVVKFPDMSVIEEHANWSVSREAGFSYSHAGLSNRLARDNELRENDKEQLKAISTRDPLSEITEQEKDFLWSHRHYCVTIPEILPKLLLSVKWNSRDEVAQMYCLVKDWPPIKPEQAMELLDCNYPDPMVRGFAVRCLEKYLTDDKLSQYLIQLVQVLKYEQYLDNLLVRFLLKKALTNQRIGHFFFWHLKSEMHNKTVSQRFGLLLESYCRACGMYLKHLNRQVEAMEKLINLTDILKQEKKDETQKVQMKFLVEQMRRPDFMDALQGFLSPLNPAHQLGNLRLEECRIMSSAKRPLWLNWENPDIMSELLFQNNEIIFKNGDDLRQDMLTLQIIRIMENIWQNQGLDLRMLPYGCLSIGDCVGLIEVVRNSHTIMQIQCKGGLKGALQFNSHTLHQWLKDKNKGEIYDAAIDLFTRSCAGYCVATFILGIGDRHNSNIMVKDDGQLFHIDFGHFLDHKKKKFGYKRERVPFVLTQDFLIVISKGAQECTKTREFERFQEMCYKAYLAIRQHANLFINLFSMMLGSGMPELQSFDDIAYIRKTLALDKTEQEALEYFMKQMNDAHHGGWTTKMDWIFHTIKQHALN
Sequence (P27986 whole entry partner): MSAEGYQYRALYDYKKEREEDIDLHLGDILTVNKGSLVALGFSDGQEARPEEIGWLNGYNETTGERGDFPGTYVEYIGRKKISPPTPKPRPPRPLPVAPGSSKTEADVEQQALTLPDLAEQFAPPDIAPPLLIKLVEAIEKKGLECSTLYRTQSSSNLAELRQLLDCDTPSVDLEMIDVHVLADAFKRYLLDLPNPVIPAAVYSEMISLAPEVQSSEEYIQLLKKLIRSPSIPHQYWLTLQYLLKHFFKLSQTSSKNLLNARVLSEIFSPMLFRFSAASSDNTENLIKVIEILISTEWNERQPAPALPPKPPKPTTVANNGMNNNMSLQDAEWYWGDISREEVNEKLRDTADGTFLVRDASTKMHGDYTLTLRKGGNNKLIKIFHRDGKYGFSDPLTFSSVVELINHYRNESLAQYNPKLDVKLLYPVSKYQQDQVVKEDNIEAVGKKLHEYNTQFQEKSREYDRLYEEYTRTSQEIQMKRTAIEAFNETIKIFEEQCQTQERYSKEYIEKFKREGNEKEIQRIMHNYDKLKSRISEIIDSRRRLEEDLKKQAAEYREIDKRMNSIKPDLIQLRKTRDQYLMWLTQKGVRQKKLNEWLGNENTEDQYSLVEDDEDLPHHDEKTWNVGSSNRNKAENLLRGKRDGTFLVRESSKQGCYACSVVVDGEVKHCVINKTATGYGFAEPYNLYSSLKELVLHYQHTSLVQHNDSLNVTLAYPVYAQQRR
Assay: PI3Kα assay (32P incorporation into phosphatidylinositol, TLC densitometry)
Format: biochemical
Settings: At 100 nM

SMILES CODE | inhibition at 0.1 µM
CC(C)(C#N)c1ccc(-n2c(=O)n(C(=O)Nc3ccccc3Br)c3cnc4ccc(Br)cc4c32)cc1 | > 50%
Cc1cccc(S(=O)(=O)n2c(=O)n(-c3ccc(C(C)(C)C#N)cc3)c3c4cc(Br)ccc4ncc32)c1 | 10 to 50%
CC(C)(C#N)c1ccc(-n2c(=O)n(S(=O)(=O)c3ccccc3)c3cnc4ccc(Br)cc4c32)cc1 | 10 to 50%

Now let's try a different one.
PI3Kα kinase (Homo sapiens, UniProt P42336) / inhibition at 0.1 µM / "CC(C)(C#N)c1ccc(-n2c(=O)n(C(=O)NCc3ccccc3)c3cnc4ccc(Br)cc4c32)cc1" : value?
10 to 50%

====

Test system: H460
Test: Cytotoxicity, propidium iodide assay, H460
Type: cell-based
Conditions: Homo sapiens, NCI-H460; Lung, H460, 48 hours treatment; read-out: IC50, C1b (H460)
pIC50: −log10 of the molar value.
Reported pIC50 is given for each of the following molecules.

Known pIC50 results, listed for orientation:
MOLECULE | MEASURED ENDPOINT | VALUE MEASURED
CC(=O)c1ccc(S(=O)(=O)n2c(=O)n(-c3ccc(C(C)(C)C#N)cc3)c3c4cc(Br)ccc4ncc32)cc1 [Example 12] | pIC50 | 5.52 to 6.00
CC(C)(C#N)c1ccc(-n2c(=O)n(S(=O)(=O)c3cccc(C(F)(F)F)c3)c3cnc4ccc(Br)cc4c32)cc1 [Example 13] | pIC50 | < 5.52

If you can, please state the reported pIC50 value of CC(C)(C#N)c1ccc(-n2c(=O)n(C(=O)Nc3ccccc3Br)c3cnc4ccc(Br)cc4c32)cc1 [Example 33] .
5.52 to 6.00

If you can, please state the reported pIC50 value of C/C=C/C(=O)n1c(=O)n(-c2ccc(C(C)(C)C#N)cc2)c2c3cc(Cl)ccc3ncc21 [Example 38] .
≥ 6.00

====

Biological target: PI3Kα kinase (Homo sapiens, UniProt P42336)
Construct: purchased Millipore, USA
Experiment: PI3Kα assay (32P incorporation into phosphatidylinositol, TLC densitometry)
Assay type: biochemical
Details: At 100 nM
MEASURED ENDPOINT: inhibition at 0.1 µM

Known inhibition at 0.1 µM results, listed for orientation:
SMILES CODE | SYSTEM TESTED | inhibition at 0.1 µM
Cc1ccc(S(=O)(=O)n2c(=O)n(-c3ccc(C(C)(C)C#N)cc3)c3c4cc(Br)ccc4ncc32)cc1 | PI3Kα kinase (Homo sapiens, UniProt P42336) | 10 to 50%
CC(C)(C#N)c1ccc(-n2c(=O)n(S(=O)(=O)c3ccccc3C#N)c3cnc4ccc(Br)cc4c32)cc1 | PI3Kα kinase (Homo sapiens, UniProt P42336) | 10 to 50%
CC(C)(C#N)c1ccc(-n2c(=O)n(S(=O)(=O)c3cccc(C(F)(F)F)c3)c3cnc4ccc(Br)cc4c32)cc1 | PI3Kα kinase (Homo sapiens, UniProt P42336) | 10 to 50%
CC(C)(C#N)c1ccc(-n2c(=O)n(S(C)(=O)=O)c3cnc4ccc(Br)cc4c32)cc1 | PI3Kα kinase (Homo sapiens, UniProt P42336) | 10 to 50%
CC(C)(C#N)c1ccc(-n2c(=O)n(C(=O)c3ccccc3)c3cnc4ccc(Cl)cc4c32)cc1 | PI3Kα kinase (Homo sapiens, UniProt P42336) | 10 to 50%

If you can, please state the reported inhibition at 0.1 µM value of "CC(C)(C#N)c1ccc(-n2c(=O)n(C(=O)c3ccccc3)c3cnc4ccc(Br)cc4c32)cc1" .
> 50%

If you can, please state the reported inhibition at 0.1 µM value of "Cc1cc(C)cc(S(=O)(=O)n2c(=O)n(-c3ccc(C(C)(C)C#N)cc3)c3c4cc(Br)ccc4ncc32)c1" .
> 50%
